Listing of recorded neutralization IC50 by entry.
molecular target: HIV-1 Env of KER2008.12 (HIV-1); assay: cell-based or functional assay

binder="CAP256-VRC26.02 (antibody, V domains shown) VH: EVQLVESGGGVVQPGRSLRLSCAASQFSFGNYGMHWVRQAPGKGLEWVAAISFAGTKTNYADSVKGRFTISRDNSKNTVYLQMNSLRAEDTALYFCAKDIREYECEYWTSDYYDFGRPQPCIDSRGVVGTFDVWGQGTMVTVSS VL: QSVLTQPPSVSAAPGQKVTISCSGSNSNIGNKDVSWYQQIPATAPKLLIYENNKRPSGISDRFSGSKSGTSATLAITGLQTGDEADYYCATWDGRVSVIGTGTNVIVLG" result_type="neutralization IC50" value_measured="> 50 µg/mL"
binder="CAP256-VRC26.01 (antibody, V domains shown) VH: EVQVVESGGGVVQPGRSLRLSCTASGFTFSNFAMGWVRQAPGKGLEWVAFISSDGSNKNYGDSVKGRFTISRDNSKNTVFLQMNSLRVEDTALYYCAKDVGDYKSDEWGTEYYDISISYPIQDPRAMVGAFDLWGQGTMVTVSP VL: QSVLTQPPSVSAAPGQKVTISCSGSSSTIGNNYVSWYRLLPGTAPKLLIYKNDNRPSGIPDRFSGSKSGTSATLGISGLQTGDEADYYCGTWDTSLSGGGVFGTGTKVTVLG" result_type="neutralization IC50" value_measured="30.9 µg/mL"

With those in mind, consider the next binder.
For reference, reported neutralization IC50 for CAP256-VRC26.03 (antibody, V domains shown) VH: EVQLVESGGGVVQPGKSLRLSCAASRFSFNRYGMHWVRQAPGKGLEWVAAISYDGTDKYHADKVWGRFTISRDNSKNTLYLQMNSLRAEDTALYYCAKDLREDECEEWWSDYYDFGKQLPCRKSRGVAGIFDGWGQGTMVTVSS VL: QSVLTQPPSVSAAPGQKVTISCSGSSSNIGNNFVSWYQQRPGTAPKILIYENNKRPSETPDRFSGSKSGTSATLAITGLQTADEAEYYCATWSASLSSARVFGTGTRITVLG stands at > 50 µg/mL
